measureName: melting point

Take a look at these entries with their results.
| molecule | melting point |
| --- | --- |
| Cc1[nH]c2ccc(NS(C)(=O)=O)cc2c1C1CCN(C)CC1 | 124 to 128 °C |
| CN1CCC(c2c[nH]c3ccc(C(=O)c4ccccn4)cc23)CC1 | 90 °C |
| CN1CC=C(c2c[nH]c3ccc(NC(=O)c4ccc(Cl)cc4)cc23)CC1 | 224 to 226 °C |
| CCN1CCC(c2c[nH]c3ccc(NC(=O)c4ccc(F)cc4)cc23)CC1.O=C(O)/C=C/C(=O)O | 152 to 155 °C |
| CN1CC=C(c2c[nH]c3ccc(NC(=O)c4ccccc4)cc23)CC1 | > 250 °C |
| CN1CCC(c2c[nH]c3ccc(NS(C)(=O)=O)cc23)CC1.O=C(O)C(=O)O | 119.1 °C |
| O=C(Nc1ccc2[nH]cc(C3=CCNCC3)c2c1)c1ccc(F)cc1 | 241 °C (dec.) |
| Br.CN(C)C1CCc2[nH]c3ccc(NC(=O)C4CCCCC4)cc3c2C1 (stereo not shown) | 224 to 226 °C |

The reported value for CCN1CC=C(c2c[nH]c3ccc(NC(=O)c4ccc(F)cc4)cc23)CC1 in terms of melting point is 127 to 135 °C (dec.)

The reported value for COc1ccc(C(=O)Nc2ccc3[nH]cc(C4=CCN(C)CC4)c3c2)cc1 in terms of melting point is 232 °C (dec.)
